Attribution: the supplement of paper PMC10567573

B1: DVL3 (parent)
chain: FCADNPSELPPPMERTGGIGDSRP

variants of: B1; test: protein stability index of a GFP-peptide fusion (GPS, HEK-293T) (PSI 1-6); higher = more stable; conditions: c terminus: a fixed tail appended;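 note: lentivirally expressed fusions sorted by FACS into six bins by GFP to DsRed ratio, PSI derived from sequencing read proportions per bin multiplied by bin number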
Output TRUE for protein stability index not less than 4; output FALSE otherwise.

Given `FCADNPSELPPPMERTGGIGDSIP` , state whether its protein stability index is at least 4.
TRUE

Given `FCADNPSELPPWMERTGGIGDSRP` , state whether its protein stability index is at least 4.
FALSE

Given `FCDDNPSELPPPMERTGGIGDSRP` , state whether its protein stability index is at least 4.
TRUE

Given `FCADNPSELPPPSERTGGIGDSRP` , state whether its protein stability index is at least 4.
TRUE

Given `FCADNPSELPFPMERTGGIGDSRP` , state whether its protein stability index is at least 4.
FALSE

Given `FCADNPKELPPPMERTGGIGDSRP` , state whether its protein stability index is at least 4.
TRUE

Given `FWADNPSELPPPMERTGGIGDSRP` , state whether its protein stability index is at least 4.
FALSE

Given `FCARNPSELPPPMERTGGIGDSRP` , state whether its protein stability index is at least 4.
TRUE

Given `FCADNPSELPPPMERTGGIGDSRI` , state whether its protein stability index is at least 4.
TRUE

Given `FCADNPSELPPPKERTGGIGDSRP` , state whether its protein stability index is at least 4.
TRUE

Given `FCADNPSELPPPMERTGGIGDSRG` , state whether its protein stability index is at least 4.
TRUE

Given `FCADNPSEIPPPMERTGGIGDSRP` , state whether its protein stability index is at least 4.
TRUE
